Please go through the items and note down their Proliferation in % (Ba/F3_gp130 cells, IL-6 + sIL-6R = 100%; IL-6 trans signalling; 1% PE).
# STUDY_TARGET: T1, human soluble IL-6R (human, UniProt P08887 20-357)
# T1 sequence: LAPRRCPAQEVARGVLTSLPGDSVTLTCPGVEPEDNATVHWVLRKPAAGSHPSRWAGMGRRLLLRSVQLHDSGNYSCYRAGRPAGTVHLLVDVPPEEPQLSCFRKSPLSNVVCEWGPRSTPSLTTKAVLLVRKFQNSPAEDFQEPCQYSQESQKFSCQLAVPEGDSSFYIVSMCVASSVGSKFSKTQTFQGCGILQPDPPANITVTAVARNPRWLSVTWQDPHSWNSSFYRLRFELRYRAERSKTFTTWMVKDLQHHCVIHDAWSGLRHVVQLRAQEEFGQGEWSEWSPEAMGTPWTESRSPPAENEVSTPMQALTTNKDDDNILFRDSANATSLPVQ
# EXPERIMENT: cell-based or functional assay
Give bare numbers, in %.

Solved cases (3 shown):
BINDER	VALUE_REPORTED
candidate anti-IL-6R Fab clone 09 (Fab, V domains shown) VH: EVQLVESGGDLVQPGGSLKLSCAASGFTFSNYGMSWVRQTPDKRLELVAAINSNGGSTYYPDSVKGRFTISRDNAKNTLYLQMSSLKSEDTAMYYCARDGNYVSDYWGQGTTLTVSS VL: DIVLTQSPASLAVSLGQRATISCRASESVDSYGNSFMHWYQQKPGQPPKLLIYLASNLESGVPARFSGSGSRTDFTLTIDPVEADDAATYYCQQNNEDPWTFGGGTKLEIK	69.8
candidate anti-IL-6R Fab clone 20 (Fab, V domains shown) VH: EVKLMESGGGLVQPGGSLKLSCAASGFTFSNYGMSWVRQTPDKRLELVAIINSNGGSTYYPDSVKGRFTISRDNAKNTLYLQMSSLKSEDTAIYYCARDGNFVSDYWGQGTTLTVSS VL: DIVLTQSPASLAVSLGQRATISCRASESVDSYGNRFLNWYQQKPGQPPKLLIYLASNLESGVPARFSGSGSRTDFTLTIDPVEADDAATYYCQQNNEDPYTFGGGTKLEIK	36.6
candidate anti-IL-6R Fab clone 19 (Fab, V domains shown) VH: EVKLMESGGGLVQPGGSLKLSCAASGFTFSNYGMSWVRQTPDKRLELVAIMNSKGGSTYYPDSVMGRFTISRDNAKNTLYLQMSSLKSEDTAMYYCARDGYYTMDYWGQGTSVTVSS VL: DIVLTQSPASLAVSLGQRATISCRASKSVDSFGNSFMHWYQQKPGQSPRLLIFLASNLESGVPARFSGSGSRTDFTLTIDPVEADDAATYYCQQNNEDPYTFGGGTKLEIK	53.3

q: Fill in the blank: the reported Proliferation in % (Ba/F3_gp130 cells, IL-6 + sIL-6R = 100%; IL-6 trans signalling; 1% PE) of candidate anti-IL-6R Fab clone 12 (Fab, V domains shown) VH: EVKLMESGGGLVQPGGSLKLSCAASGFTFSNYGMSWVRQTPDKRLEWVANINSNGGSTYYPDSVKGRFTISRDNAQNTLYLQMSSLKSEDTAMYYCTRDGNFVSDYWGQGTTLTVSS VL: DIVLTQSPASLAVSPGQRATISCRASESVDSYGNSFMNWYQQKPGQPPKLLIYLASNLESGVPARFSGSGSRTDFTLTIDPVEADDAATYYCQQNNEDPYTFGGGTKLEIK is ____.
a: 47.9

Origin of measurements: patent US20260226179A1
